compounds and their reported IC50
Molecular target: KRAS G12D (Homo sapiens (Human), UniProt P01116+P62937, G12D)
Sequence (P01116-2 other isoform, or with tags, fused parts or gaps G12D): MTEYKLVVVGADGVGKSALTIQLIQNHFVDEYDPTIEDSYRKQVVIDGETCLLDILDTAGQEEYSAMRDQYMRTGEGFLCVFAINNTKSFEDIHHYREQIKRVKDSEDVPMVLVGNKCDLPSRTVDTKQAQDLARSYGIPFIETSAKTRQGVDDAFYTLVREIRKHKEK
Sequence (P62937 whole entry): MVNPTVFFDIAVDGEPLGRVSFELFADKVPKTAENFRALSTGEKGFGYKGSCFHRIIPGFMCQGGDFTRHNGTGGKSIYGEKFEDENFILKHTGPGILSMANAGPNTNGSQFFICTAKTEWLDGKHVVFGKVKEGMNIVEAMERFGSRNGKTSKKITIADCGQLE
Assay: Ras-Raf (BRAF RBD) disruption / FRET / MOA assay, KRAS G12D
Type: biochemical
Conditions: Ras-Raf disruption/FRET/MOA assay; class symbols; read-out: KRAS G12D FRET data IC50
Protocol: The purpose of this biochemical assay is to measure the ability of test compounds to facilitate ternary complex formation between a nucleotide-loaded Ras isoform and cyclophilin A; the resulting ternary complex disrupts binding to a BRAF^RBD construct, inhibiting Ras signaling through a RAF effector. Compound is present in plate wells as a 10-point 3-fold dilution series starting at a final concentration of 30 μM. […]

compound	IC50
C=CC(=O)N(C)[C@@H]1CCN(C(=O)N(C)[C@H](C(=O)N[C@H]2Cc3nc(cs3)-c3ccc4c(c3)c(c(-c3cccnc3[C@H](C)OC)n4CC)CC(C)(C)COC(=O)[C@@H]3CCCN(N3)C2=O)C(C)C)C1 (atropisomer, axis not shown) [Example A416]	1 to 10 µM

Name the reported IC50 value associated with the compound C=CC(=O)N1CC[C@H](C(=O)N(C)[C@H](C(=O)N[C@H]2CC3=CCCN(C3)c3ccc4c(c3)c(c(-c3cccnc3[C@H](C)OC)n4CC)CC(C)(C)COC(=O)[C@@H]3CCCN(N3)C2=O)C(C)C)C1 (atropisomer, axis not shown) [Example A486]
> 10 µM

Name the reported IC50 value associated with the compound C=CC(=O)N1CC[C@H](C(=O)N(C)[C@H](C(=O)N[C@H]2Cc3cccc(c3)-c3ccc4c(c3)c(c(-c3cccnc3[C@H](C)OC)n4CC)CC(C)(C)COC(=O)[C@@H]3CCCN(N3)C2=O)C(C)C(F)(F)F)C1 (stereo partly shown) [Example A641]
> 10 µM

Name the reported IC50 value associated with the compound C=CC(=O)N1CC[C@H](C(=O)N(C)[C@H](C(=O)N[C@H]2Cc3cc(N)cc(c3)-c3ccc4c(c3)c(c(-c3ccccc3CCOC)n4CC)CC(C)(C)COC(=O)[C@@H]3CCCN(N3)C2=O)C(C)C)C1 [Examples A002]
> 10 µM

###

Molecular target: KRAS G12V (Homo sapiens (Human), UniProt P01116+P62937, G12V)
Sequence (P01116-2 other isoform, or with tags, fused parts or gaps G12V): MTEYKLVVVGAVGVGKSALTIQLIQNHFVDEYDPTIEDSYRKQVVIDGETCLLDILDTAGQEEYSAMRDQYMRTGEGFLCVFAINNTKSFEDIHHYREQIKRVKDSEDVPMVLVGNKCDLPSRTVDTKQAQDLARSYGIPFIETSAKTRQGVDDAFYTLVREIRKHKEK
Sequence (P62937 whole entry): as the sequence (P62937 whole entry) above
Test: Ras-Raf (BRAF RBD) disruption / FRET / MOA assay, KRAS G12V
Type: biochemical
Details: read-out: IC50* KRAS G12V FRET data
Protocol: The purpose of this biochemical assay is to measure the ability of test compounds to facilitate ternary complex formation between a nucleotide-loaded Ras isoform and cyclophilin A; the resulting ternary complex disrupts binding to a BRAF^RBD construct, inhibiting Ras signaling through a RAF effector. Compound is present in plate wells as a 10-point 3-fold dilution series starting at a final concentration of 30 μM. […]
measure-name: IC50

compound	IC50
C=CC(=O)N1CC[C@@H]2[C@H]1CN2C(=O)N(C)[C@H](C(=O)N[C@H]1Cc2nc(cs2)-c2ccc3c(c2)c(c(-c2cccnc2[C@H](C)OC)n3CC)CC(C)(C)COC(=O)[C@@H]2CCCN(N2)C1=O)C(C)C (atropisomer, axis not shown)	100 to 1000 nM
CCn1c(-c2cccnc2[C@H](C)OC)c2c3cc(ccc31)-c1csc(n1)C[C@H](NC(=O)[C@H](C(C)C)N(C)C(=O)N1CCN(C(=O)/C=C/CN(C)C)C3(CC3)C1)C(=O)N1CCC[C@H](N1)C(=O)OCC(C)(C)C2 (atropisomer, axis not shown)	100 to 1000 nM
C=CC(=O)N1CC[C@H](C(=O)N(C)[C@H](C(=O)N[C@H]2Cc3cc(O)cc(c3)-c3ccc4c(c3)c(c(-c3ncn(C)c3[C@H](C)OC)n4CC)CC(C)(C)COC(=O)[C@@H]3CCCN(N3)C2=O)C(C)C)C1	1000 to 10000 nM

For the record C=CC(=O)N1CC[C@H](C(=O)N(C)[C@H](C(=O)N[C@H]2Cc3cc(O)cc(c3)-c3ccc4c(c3)c(c(-c3cnccc3[C@H](C)OC)n4CC)CC(C)(C)COC(=O)[C@@H]3CCCN(N3)C2=O)C(C)C)C1 , what value of IC50 is listed for KRAS G12V (Homo sapiens (Human), UniProt P01116+P62937, G12V)?
1000 to 10000 nM

For the record C=CC(=O)N1CC[C@H](C(=O)N2CCCCC[C@H]2C(=O)N[C@H]2Cc3nc(cs3)-c3ccc4c(c3)c(c(-c3cccnc3[C@H](C)OC)n4CC)CC(C)(C)COC(=O)[C@@H]3CCCN(N3)C2=O)C1 (atropisomer, axis not shown) , what value of IC50 is listed for KRAS G12V (Homo sapiens (Human), UniProt P01116+P62937, G12V)?
1000 to 10000 nM

For the record C=CC(=O)N1CC[C@H](C(=O)N(C)[C@H](C(=O)N[C@H]2Cc3cccc(c3)-c3ccc4c(c3)c(c(-c3cc(CN(C)C)cnc3[C@H](C)OC)n4CC)CC(C)(C)COC(=O)[C@@H]3CCCN(N3)C2=O)C(C)C)C1 [Example A523] , what value of IC50 is listed for KRAS G12V (Homo sapiens (Human), UniProt P01116+P62937, G12V)?
> 10000 nM

For the record C=CC(=O)N1CC[C@H](C(=O)N(C)[C@H](C(=O)N[C@H]2Cc3cccc(c3)-c3ccc4c(c3)c(c(-c3cc5c(nc3[C@H](C)OC)CCN(C)C5)n4CC)CC(C)(C)COC(=O)[C@@H]3CCCN(N3)C2=O)C(C)C)C1 (atropisomer, axis not shown) , what value of IC50 is listed for KRAS G12V (Homo sapiens (Human), UniProt P01116+P62937, G12V)?
1000 to 10000 nM

For the record C=CC(=O)N(C)[C@@H]1C[C@H](C)N(C(=O)N(C)[C@H](C(=O)N[C@H]2Cc3nc(cs3)-c3ccc4c(c3)c(c(-c3cccnc3[C@H](C)OC)n4CC)CC(C)(C)COC(=O)[C@@H]3CCCN(N3)C2=O)C(C)C)C1 (atropisomer, axis not shown) , what value of IC50 is listed for KRAS G12V (Homo sapiens (Human), UniProt P01116+P62937, G12V)?
100 to 1000 nM
